Value source: patent US9645128B2

# systemName: 19 kDa protein of Oplophorus luciferase (Oplophorus gracilirostris)
# Construct: made in house
# Sequence (Q9GV45 28-196): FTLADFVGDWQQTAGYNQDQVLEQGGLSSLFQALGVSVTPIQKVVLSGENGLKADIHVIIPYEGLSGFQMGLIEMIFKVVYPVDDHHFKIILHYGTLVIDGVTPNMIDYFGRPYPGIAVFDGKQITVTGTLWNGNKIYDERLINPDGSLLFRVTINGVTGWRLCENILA
# assayText: Substrate specificity, luminescence activity and emission spectra of the 19 kDa protein of Oplophorus luciferase
# Assay type: biochemical, Oplophorus gracilorostris
# settings: Oplophorus luciferase, 22 to 25° C.
Reported Maximum emission wavelength λmax (nm) values for the following compounds.
Report as a plain number; the unit nm is understood.

- compound: "Cc1ccc(Cc2nc3c(Cc4ccccc4)[nH]c(-c4ccc(O)cc4)cn-3c2=O)cc1"
  systemName: "19 kDa protein of Oplophorus luciferase (Oplophorus gracilirostris)"
  readoutValue: 454.4
- compound: "CC(c1ccccc1)c1nc2c(Cc3ccccc3)[nH]c(-c3ccc(O)cc3)cn-2c1=O (centres unmarked)"
  systemName: "19 kDa protein of Oplophorus luciferase (Oplophorus gracilirostris)"
  readoutValue: 457.0

Q: Reported Maximum emission wavelength λmax (nm), compound `Cc1cccc(Cc2nc3c(Cc4ccccc4)[nH]c(-c4ccc(O)cc4)cn-3c2=O)c1` : ____
A: 455.5

Q: What do we get for `O=c1c(Cc2cccc(O)c2)nc2c(Cc3ccccc3)[nH]c(-c3ccc(O)cc3)cn1-2` ?
A: 458.0

Q: Lookup `COc1cccc(Cc2nc3c(Cc4ccccc4)[nH]c(-c4ccc(O)cc4)cn-3c2=O)c1`
A: 455.5

Q: Please do the same for `COc1ccc(Cc2nc3c(Cc4ccccc4)[nH]c(-c4ccc(O)cc4)cn-3c2=O)cc1` as well.
A: 454.5

Q: Entry `O=c1c(Cc2ccc(C(F)(F)F)cc2)nc2c(Cc3ccccc3)[nH]c(-c3ccc(O)cc3)cn1-2` please
A: 450.5

Q: Please do the same for Oc1ccc(-c2cn3c(O)c(Cc4ccccc4)nc3c(Cc3ccccc3)n2)cc1 [h-CTZ, h-coelenterazine, reference compound] as well.
A: 456.5

---

# Tested on: Gaussia luciferase
# assayText: Substrate specificity, luminescence activity and emission spectra of Gaussia luciferase
# settings: Gaussia luciferase; coelenterazine = 100.0
measuredProperty: Luminescence capacity 10 secs. (%)

- compound: "O=c1c(Cc2cccc(O)c2)nc2c(Cc3ccccc3)[nH]c(-c3ccc(O)cc3)cn1-2"
  measuredProperty: "Luminescence capacity 10 secs. (%)"
  readoutValue: "7.4%"
- compound: "COc1ccc(Cc2nc3c(Cc4ccccc4)[nH]c(-c4ccc(O)cc4)cn-3c2=O)cc1"
  measuredProperty: "Luminescence capacity 10 secs. (%)"
  readoutValue: "15.5%"
- compound: "O=c1c(Cc2ccc(C(F)(F)F)cc2)nc2c(Cc3ccccc3)[nH]c(-c3ccc(O)cc3)cn1-2"
  measuredProperty: "Luminescence capacity 10 secs. (%)"
  readoutValue: "0.7%"
- compound: "COc1cccc(Cc2nc3c(Cc4ccccc4)[nH]c(-c4ccc(O)cc4)cn-3c2=O)c1"
  measuredProperty: "Luminescence capacity 10 secs. (%)"
  readoutValue: "3.1%"
- compound: "Cc1cccc(Cc2nc3c(Cc4ccccc4)[nH]c(-c4ccc(O)cc4)cn-3c2=O)c1"
  measuredProperty: "Luminescence capacity 10 secs. (%)"
  readoutValue: "2.1%"
- compound: "CC(c1ccccc1)c1nc2c(Cc3ccccc3)[nH]c(-c3ccc(O)cc3)cn-2c1=O (centres unmarked)"
  measuredProperty: "Luminescence capacity 10 secs. (%)"
  readoutValue: ">0.01%"
- compound: "Cc1ccc(Cc2nc3c(Cc4ccccc4)[nH]c(-c4ccc(O)cc4)cn-3c2=O)cc1"
  measuredProperty: "Luminescence capacity 10 secs. (%)"
  readoutValue: "5.9%"

Now examine the next entry.
Q: Item under review: Oc1ccc(-c2cn3c(O)c(Cc4ccccc4)nc3c(Cc3ccccc3)n2)cc1 [h-CTZ, h-coelenterazine, reference compound] . Reported Luminescence capacity 10 secs. (%)?
A: 7.2%

---

# systemName: 19 kDa protein of Oplophorus luciferase (Oplophorus gracilirostris)
# Construct: made in house
# assayText: Substrate specificity, luminescence activity and emission spectra of the 19 kDa protein of Oplophorus luciferase
# Type: biochemical, Oplophorus gracilorostris
# settings: Oplophorus luciferase; coelenterazine = 100.0
Consider the following compounds and their measured Luminescence activity Imax (%) readings.
Return type: number; implicit unit %.

Field: example entries. Status: answers known.
- compound: "COc1cccc(Cc2nc3c(Cc4ccccc4)[nH]c(-c4ccc(O)cc4)cn-3c2=O)c1 [3meo-CTZ, 3meo-coelenterazine]"
  readoutValue: 189.1
- compound: "Oc1ccc(-c2cn3c(O)c(Cc4ccccc4)nc3c(Cc3ccccc3)n2)cc1 [h-CTZ, h-coelenterazine, reference compound]"
  readoutValue: 68.4
- compound: "COc1ccc(Cc2nc3c(Cc4ccccc4)[nH]c(-c4ccc(O)cc4)cn-3c2=O)cc1 [meo-CTZ, meo-coelenterazine]"
  readoutValue: 68.1
- compound: "O=c1c(Cc2cccc(O)c2)nc2c(Cc3ccccc3)[nH]c(-c3ccc(O)cc3)cn1-2 [3iso-CTZ, 3-isocoelenterazine]"
  readoutValue: 78.2
- compound: "Cc1ccc(Cc2nc3c(Cc4ccccc4)[nH]c(-c4ccc(O)cc4)cn-3c2=O)cc1 [me-CTZ, me-coelenterazine]"
  readoutValue: 46.6

Q: # get_value(readout= Luminescence activity Imax (%), system= 19 kDa protein of Oplophorus luciferase (Oplophorus gracilirostris)) for Cc1cccc(Cc2nc3c(Cc4ccccc4)[nH]c(-c4ccc(O)cc4)cn-3c2=O)c1 [3me-CTZ, 3me-coelenterazine]
A: 80.0

Q: Lookup O=c1c(Cc2ccc(C(F)(F)F)cc2)nc2c(Cc3ccccc3)[nH]c(-c3ccc(O)cc3)cn1-2 [cf3-CTZ, cf3-coelenterazine]
A: 49.5

Q: // same read-out, input: CC(c1ccccc1)c1nc2c(Cc3ccccc3)[nH]c(-c3ccc(O)cc3)cn-2c1=O (centres unmarked) [αmeh-CTZ, αmeh-coelenterazine]
A: 15.6

---

# systemName: 19 kDa protein of Oplophorus luciferase (Oplophorus gracilirostris)
# Construct: made in house
# assayText: Substrate specificity, luminescence activity and emission spectra of the 19 kDa protein of Oplophorus luciferase
# Type: biochemical, Oplophorus gracilorostris
# settings: Oplophorus luciferase, emission integrated for 10 seconds; coelenterazine = 100.0
The following compounds are listed with their measured Luminescence capacity 10 secs. (%) values.
Give the number; % is assumed, so skip it.

Below, 3 compounds whose answers are already recorded.
- compound: "O=c1c(Cc2cccc(O)c2)nc2c(Cc3ccccc3)[nH]c(-c3ccc(O)cc3)cn1-2"
  measuredProperty: "Luminescence capacity 10 secs. (%)"
  readoutValue: 71.8
- compound: "COc1cccc(Cc2nc3c(Cc4ccccc4)[nH]c(-c4ccc(O)cc4)cn-3c2=O)c1"
  measuredProperty: "Luminescence capacity 10 secs. (%)"
  readoutValue: 204.7
- compound: "O=c1c(Cc2ccc(C(F)(F)F)cc2)nc2c(Cc3ccccc3)[nH]c(-c3ccc(O)cc3)cn1-2"
  measuredProperty: "Luminescence capacity 10 secs. (%)"
  readoutValue: 68.2

Moving on to another compound below.
Q: Form field: reported Luminescence capacity 10 secs. (%) of CC(c1ccccc1)c1nc2c(Cc3ccccc3)[nH]c(-c3ccc(O)cc3)cn-2c1=O (stereo not shown)
A: 19.0
